This listing pairs binders with measured Relative binding activity.
Target: T1, recombinant human soluble gpNMB (recombinant human gpNMB-FLAG-His) (human, UniProt Q14956 23-498)
T1 sequence: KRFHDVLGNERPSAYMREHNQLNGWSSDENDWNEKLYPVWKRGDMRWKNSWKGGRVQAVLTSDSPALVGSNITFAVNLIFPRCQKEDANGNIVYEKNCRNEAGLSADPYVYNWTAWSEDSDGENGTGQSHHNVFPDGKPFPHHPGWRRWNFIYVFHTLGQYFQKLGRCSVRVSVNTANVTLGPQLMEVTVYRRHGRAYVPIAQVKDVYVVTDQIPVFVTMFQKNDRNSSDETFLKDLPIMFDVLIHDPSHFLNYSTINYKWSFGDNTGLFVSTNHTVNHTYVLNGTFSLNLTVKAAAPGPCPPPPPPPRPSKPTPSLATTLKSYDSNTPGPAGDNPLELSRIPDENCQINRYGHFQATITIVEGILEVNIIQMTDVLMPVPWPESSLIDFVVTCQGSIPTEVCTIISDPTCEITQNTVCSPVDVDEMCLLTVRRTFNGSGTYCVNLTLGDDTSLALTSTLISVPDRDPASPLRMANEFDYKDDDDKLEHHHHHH
Assay: antigen ELISA, vs hGPN06-1_H1L1

| Binder | Relative binding activity |
| --- | --- |
| hGPN06-1_H1L1 VH Y60A (antibody, V domains shown) VH: QVQLVQSGAEVKKPGASVKVSCKASGYTFTDNWMGWVKQRPGQGLEWIGAIDPSDSFTNANQNFKGRVTMTVDTSISTAYMELSRLRSDDSAVYFCTRSGYYGSPKLGGDYWGQGTLVTVSS VL: EIVLTQSPSSLSASVGDRVTITCSASSSISYMHWYQQKSGTAPKLLIYSTSNLASGVPSRFSGSGSGTDFTFTISSLQPEDAATYYCHQWNSYPCTFGGGTKLEIK | 0.04 |
| hGPN06-1_H1L1 VH G35A (antibody, V domains shown) VH: QVQLVQSGAEVKKPGASVKVSCKASGYTFTDNWMAWVKQRPGQGLEWIGAIDPSDSFTNYNQNFKGRVTMTVDTSISTAYMELSRLRSDDSAVYFCTRSGYYGSPKLGGDYWGQGTLVTVSS VL: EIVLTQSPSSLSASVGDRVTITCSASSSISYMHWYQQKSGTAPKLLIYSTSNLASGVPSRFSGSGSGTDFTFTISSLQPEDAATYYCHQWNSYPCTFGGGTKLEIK | 1.4 |
| hGPN06-1_H1L1 VH Y27A (antibody, V domains shown) VH: QVQLVQSGAEVKKPGASVKVSCKASGATFTDNWMGWVKQRPGQGLEWIGAIDPSDSFTNYNQNFKGRVTMTVDTSISTAYMELSRLRSDDSAVYFCTRSGYYGSPKLGGDYWGQGTLVTVSS VL: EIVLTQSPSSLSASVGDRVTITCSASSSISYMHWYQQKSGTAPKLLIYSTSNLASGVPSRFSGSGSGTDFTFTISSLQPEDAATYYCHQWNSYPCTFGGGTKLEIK | 0.02 |
| hGPN06-1_H1L1 VH P53A (antibody, V domains shown) VH: QVQLVQSGAEVKKPGASVKVSCKASGYTFTDNWMGWVKQRPGQGLEWIGAIDASDSFTNYNQNFKGRVTMTVDTSISTAYMELSRLRSDDSAVYFCTRSGYYGSPKLGGDYWGQGTLVTVSS VL: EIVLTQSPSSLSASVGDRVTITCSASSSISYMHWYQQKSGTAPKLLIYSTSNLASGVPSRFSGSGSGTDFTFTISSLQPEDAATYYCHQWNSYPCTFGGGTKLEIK | 0.85 |
| hGPN06-1_H1L1 VH F57A (antibody, V domains shown) VH: QVQLVQSGAEVKKPGASVKVSCKASGYTFTDNWMGWVKQRPGQGLEWIGAIDPSDSATNYNQNFKGRVTMTVDTSISTAYMELSRLRSDDSAVYFCTRSGYYGSPKLGGDYWGQGTLVTVSS VL: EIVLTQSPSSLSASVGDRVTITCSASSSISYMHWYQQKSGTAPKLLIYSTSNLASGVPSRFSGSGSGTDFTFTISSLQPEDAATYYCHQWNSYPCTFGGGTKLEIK | 0.09 |
